- ASSAY: qHTS to identify inhibitors of the type 1 interferon - major histocompatibility complex class I in skeletal muscle: primary screen against the NCATS Mechanism Interrogation Plate v5.0 (MIPE) Libary (AID 1347411); also: nearly all actives have a fitted effect of over 65% in size; also: potency is read from the fitted curve at half-maximal effect
- CONDITIONS USED: iHSKM cells + IFN-b, HiBiT-tagged MHC-I luminescence, 24 h; series mostly up to 45.8 µM
Results filed as inconclusive are left out. The source made the active and inactive calls. Calls follow the shape of the dose curve; as a rule, active = well fitted inhibition curve with a large enough effect; inconclusive = small, poorly fitted or top-dose-only effect; inactive = no such curve, though single readings can be large or run the other way.
READOUT NAME: Potency

Examples with answers:
# COMPOUND, Potency
data = [
    ("Clc1cccc(-c2ccc(-c3nnc(CCCc4ccc5cccnc5n4)o3)cc2)c1", "inactive"),
    ("O=C(Nc1ccccc1)Nc1ccc(-c2ccc(C(=O)[C@@H]3CCC[C@H]3C(=O)O)cc2)cc1", "inactive"),
    ("CC1=C2[N-][C@H]([C@H](CC(N)=O)[C@@]2(C)CCC(=O)NC[C@@H](C)OP(=O)([O-])O[C@H]2[C@@H](O)[C@@H](n3cnc4cc(C)c(C)cc43)O[C@@H]2CO)[C@]2(C)N=C(C(C)=C3N=C(C=C4N=C1[C@@H](CCC(N)=O)C4(C)C)[C@@H](CCC(N)=O)[C@]3(C)CC(N)=O)[C@@H](CCC(N)=O)[C@]2(C)CC(N)=O.O.[Co+2]", "8.29 µM (active)"),
    ("Cc1cc(C)c(S(=O)(=O)N(CCc2cccc(Br)c2)Cc2ccc(-c3cccc(S(C)(=O)=O)c3)cc2)c(C)c1", "inactive"),
    ("CC(C)(O)CNc1ncc(-c2ccnc(Nc3ccncc3)n2)c(CC2CC2)n1", "16.5 µM (active)"),
    ("CC1(C(=O)O)CCC2(C)CCC3(C)C(=CC(=O)C4C5(C)CCC(OC6OC(C(=O)O)C(O)C(O)C6OC6OC(C(=O)O)C(O)C(O)C6O)C(C)(C)C5CCC43C)C2C1 (stereo unspecified)", "inactive"),
]

Name the recorded Potency for C=C1C(=O)O[C@@H]2[C@H]3C(C)=CC[C@@]34O[C@@]4(C)CC[C@@H]12 .
16.5 µM (active)

Same read-out for COc1ccc(-c2oc3c(CC=C(C)C)c(OC4O[C@H](CO)[C@@H](O)[C@H](O)[C@H]4O)cc(O)c3c(=O)c2OC2O[C@@H](C)[C@H](O)[C@@H](O)[C@H]2O)cc1 (stereo partly specified) ?
inactive

Same read-out for Cc1nnn(C)c1-c1cnc2c3ccc(C(C)(C)O)cc3n([C@H](c3ccccc3)C3CCOCC3)c2c1 ?
inactive

Same read-out for COc1cc(OC)c(/C=C/S(=O)(=O)Cc2ccc(OC)c(OP(=O)(O)O)c2)c(OC)c1 ?
inactive

Data origin, for the record: PubChem BioAssay (NCATS)
